Test system: TIE2
Construct: gene TEK
Settings: concentration: 1 μM, replicates: in singlicate; n = 1;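 also: KINOMEscan kinase panel screen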
Measured parameter: %Inh (%)
Answers are plain numbers, in %.

Here's what some known entries look like.
Smiles entry | %Inh / %
COC(=O)c1c(-c2ccccc2)c2cc(Br)ccc2c(=O)n1Cc1ccc(NC(=O)CCC(=O)O)cc1 | 0
Cc1cc(Nc2nc(-c3cccc(C)n3)nc3ccccc23)ccn1 | 13

q: Please report the measured %Inh for Nc1ncnc2c1ncn2-c1cccc2ccccc12 tested on TIE2.
a: 0

---

System: GRK1
Conditions: concentration: 1 μM, replicates: in singlicate; n = 1
Measured parameter: %Inh (%)
Numbers only, in %.

Smiles entry | %Inh [%]
Cc1ccc(Oc2ccc(Nc3ncnc4cc[nH]c34)cc2C)cn1 | 9
Cl.c1ccc(Cn2cnc3cc(Nc4ncnc5ccccc45)ccc32)cc1 | 0
CCC(=O)c1c(-c2ccccc2)c2cc(Cl)ccc2c(=O)n1Cc1ccc(C(=O)O)cc1 | 0
COC(=O)c1c(-c2ccccc2)c2cc(Br)ccc2c(=O)n1Cc1ccc(S(C)(=O)=O)cc1 | 0
C[C@@H]1CC[C@H](C(=O)NC2CCCCC2)CN1c1cc(-c2ccc3c(N)n[nH]c3c2)nc(N)n1 | 0
Cc1c(Cn2c(C)nn3c(=O)cc(N4CCO[C@H](C)C4)nc23)cccc1C(F)(F)F | 0

For every listed record, write down its %Inh.
1. O=C(NCc1cccs1)c1cc(C(=O)c2c(Cl)cccc2Cl)c[nH]1
2. CC(C)(C)c1ccc(C(=O)Nc2cn3cc(-c4ccccc4)ccc3n2)cc1
3. COc1cc2ncn(-c3cc(OCc4ccncc4)c(C(N)=O)s3)c2cc1OC
4. COc1cc2nccc(Nc3cccc(Oc4ccccc4)c3)c2cc1OC.Cl

a:
0
25
0
0
